The measurements presented in this section are drawn from patent US20250214990A1.

# maps each entry to its Cmax
test: Mouse PK profile after oral administration; assay type: in vivo, Male CD-1 mice; conditions: male, CD-1, plasma; mouse, oral, 5 mg/kg

[
  {
    "molecule": "Cn1c(=O)nc(N2CCOCc3c(C#CC4CC4)cccc32)c2cc(Cl)c(OCCO)cc21",
    "Cmax / ng/mL": 2230
  },
  {
    "molecule": "Cn1c(=O)nc(N2CCOCc3c(C#CC4(C(F)(F)F)CC4)cccc32)c2cc(Cl)ccc21",
    "Cmax / ng/mL": 985
  },
  {
    "molecule": "Cn1c(=O)nc(N2CCOCc3c(C#CC4(C(F)(F)F)CC4)cccc32)c2cc(C#N)c(OC3CCOC3)cc21 (stereo not shown)",
    "Cmax / ng/mL": 1690
  },
  {
    "molecule": "Cn1c(=O)nc(N2CCOCc3c(C#CC4(C(F)(F)F)CC4)cccc32)c2cc(Cl)c(OCCO)cc21",
    "Cmax / ng/mL": 2400
  }
]

* * *

test: Mouse PK profile after oral administration; format: in vivo, Male CD-1 mice; settings: male, CD-1, plasma; mouse, oral, 5 mg/kg

[
  {
    "molecule": "Cn1c(=O)nc(N2CCOCc3c(C#CC4(C(F)(F)F)CC4)cccc32)c2cc(Cl)ccc21",
    "display_unit": "ng·h/mL",
    "AUC(0-inf)": 7110
  },
  {
    "molecule": "Cn1c(=O)nc(N2CCOCc3c(C#CC4(C(F)(F)F)CC4)cccc32)c2cc(C#N)c(OC3CCOC3)cc21 (stereo not shown)",
    "display_unit": "ng·h/mL",
    "AUC(0-inf)": 7870
  },
  {
    "molecule": "Cn1c(=O)nc(N2CCOCc3c(C#CC4(C(F)(F)F)CC4)cccc32)c2cc(Cl)c(OCCO)cc21",
    "display_unit": "ng·h/mL",
    "AUC(0-inf)": 28400
  },
  {
    "molecule": "Cn1c(=O)nc(N2CCOCc3c(C#CC4CC4)cccc32)c2cc(Cl)c(OCCO)cc21",
    "display_unit": "ng·h/mL",
    "AUC(0-inf)": 15500
  }
]

* * *

system: Human Pan T cells; assay: IL-2 Release Detection Assay; format: cell-based; conditions: T-cell, Top activation/DMSO control
If the reported maximal fold induction equals or exceeds 10, assign y. If not, assign n.

[
  {
    "compound": "Cn1c(=O)nc(N2CCOCc3c(C#CC4(C(F)(F)F)CC4)cccc32)c2cc(C#N)c(OC3CCOC3)cc21 (stereo not drawn)",
    "tgt": "Human Pan T cells",
    "discrete_label": "y"
  },
  {
    "compound": "Cn1c(=O)nc(N2CCOCc3c(C#CC4(C(F)(F)F)CC4)cccc32)c2cc(Cl)c(OCCO)cc21",
    "tgt": "Human Pan T cells",
    "discrete_label": "y"
  },
  {
    "compound": "Cn1c(=O)nc(N2CCOCc3c(C#CC4(C(F)(F)F)CC4)cccc32)c2cc(Cl)c(OCCN)cc21",
    "tgt": "Human Pan T cells",
    "discrete_label": "y"
  },
  {
    "compound": "Cn1c(=O)nc(N2CCOCc3c(C#CC4(C(F)(F)F)CC4)cccc32)c2cc(Cl)ccc21",
    "tgt": "Human Pan T cells",
    "discrete_label": "n"
  },
  {
    "compound": "Cn1c(=O)nc(N2CCOCc3c(C#CC4(C(F)(F)F)CC4)cccc32)c2cc(C#N)c(OCCN)cc21",
    "tgt": "Human Pan T cells",
    "discrete_label": "y"
  },
  {
    "compound": "Cn1c(=O)nc(N2CCOCc3c(C#CC4(C(F)(F)F)CC4)cccc32)c2cc(Cl)c(N3CCOCC3)cc21",
    "tgt": "Human Pan T cells",
    "discrete_label": "y"
  },
  {
    "compound": "Cn1c(=O)nc(N2CCOCc3c(C#CC4CC4)cccc32)c2cc(Cl)c(OCCO)cc21",
    "tgt": "Human Pan T cells",
    "discrete_label": "y"
  },
  {
    "compound": "Cn1c(=O)nc(N2CCOCc3c(C#CC4(C(F)(F)F)CC4)cccc32)c2cc(Cl)c(OCCCN)cc21",
    "tgt": "Human Pan T cells",
    "discrete_label": "n"
  }
]

* * *

Recorded IC50 values for a group of compounds are listed next.
molecular target: DGKA (Homo sapiens, UniProt P23743)
Sequence (P23743 whole entry): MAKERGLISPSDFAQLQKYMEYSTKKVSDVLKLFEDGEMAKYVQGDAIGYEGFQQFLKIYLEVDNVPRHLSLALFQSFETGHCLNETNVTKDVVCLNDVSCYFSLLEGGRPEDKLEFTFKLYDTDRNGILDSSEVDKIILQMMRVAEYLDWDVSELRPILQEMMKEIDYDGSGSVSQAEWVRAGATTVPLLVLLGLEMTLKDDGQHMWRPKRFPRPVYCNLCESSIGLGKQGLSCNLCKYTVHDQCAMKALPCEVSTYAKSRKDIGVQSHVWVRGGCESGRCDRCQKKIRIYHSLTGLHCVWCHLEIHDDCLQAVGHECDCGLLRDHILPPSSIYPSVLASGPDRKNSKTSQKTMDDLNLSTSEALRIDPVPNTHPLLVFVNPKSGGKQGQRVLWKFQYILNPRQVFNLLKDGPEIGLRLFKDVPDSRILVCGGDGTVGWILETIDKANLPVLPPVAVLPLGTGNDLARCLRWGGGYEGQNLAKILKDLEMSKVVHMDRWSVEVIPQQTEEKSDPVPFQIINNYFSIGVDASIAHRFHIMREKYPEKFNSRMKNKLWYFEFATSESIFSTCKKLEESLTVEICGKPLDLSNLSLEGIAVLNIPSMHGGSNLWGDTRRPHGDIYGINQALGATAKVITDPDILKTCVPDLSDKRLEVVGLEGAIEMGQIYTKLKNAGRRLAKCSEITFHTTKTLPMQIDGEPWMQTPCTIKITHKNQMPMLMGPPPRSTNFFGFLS
endpoint_name: IC50

[
  {
    "compound": "Cn1c(=O)cc(N2CCOCc3c(C#CC4(C(F)(F)F)CC4)cccc32)c2nc(C#N)ccc21",
    "tgt": "DGKA (Homo sapiens, UniProt P23743)",
    "endpoint_name": "IC50",
    "measured_result": "< 1 nM"
  },
  {
    "compound": "Cn1c(=O)nc(N2CCOCc3c(C#CC4CC4)cccc32)c2cc(Cl)c(OCCO)cc21",
    "tgt": "DGKA (Homo sapiens, UniProt P23743)",
    "endpoint_name": "IC50",
    "measured_result": "< 1 nM"
  },
  {
    "compound": "Cn1c(=O)cc(N2CCOCc3c(C#CC4(C(F)(F)F)CC4)cccc32)c2nc(Cl)ccc21",
    "tgt": "DGKA (Homo sapiens, UniProt P23743)",
    "endpoint_name": "IC50",
    "measured_result": "< 1 nM"
  },
  {
    "compound": "Cn1c(=O)nc(N2CCOCc3c(C#CC4(C(F)(F)F)CC4)cccc32)c2cc(Cl)c(OC3CCOCC3)cc21",
    "tgt": "DGKA (Homo sapiens, UniProt P23743)",
    "endpoint_name": "IC50",
    "measured_result": "< 1 nM"
  },
  {
    "compound": "CN1CCC(Oc2cc3c(cc2Cl)c(N2CCOCc4c(C#CC5(C(F)(F)F)CC5)cccc42)nc(=O)n3C)C1 (stereo not shown)",
    "tgt": "DGKA (Homo sapiens, UniProt P23743)",
    "endpoint_name": "IC50",
    "measured_result": "1 to 10 nM"
  },
  {
    "compound": "CC#Cc1cccc2c1COCCN2c1nc(=O)n(C)c2cc(OCCO)c(Cl)cc12",
    "tgt": "DGKA (Homo sapiens, UniProt P23743)",
    "endpoint_name": "IC50",
    "measured_result": "< 1 nM"
  },
  {
    "compound": "Cc1cccc2c1COCCN2c1nc(=O)n(C)c2cc(OCCO)c(Cl)cc12",
    "tgt": "DGKA (Homo sapiens, UniProt P23743)",
    "endpoint_name": "IC50",
    "measured_result": "1 to 10 nM"
  },
  {
    "compound": "Cn1c(=O)nc(N2CCOCc3ccccc32)c2cc(Cl)c(OCCO)cc21",
    "tgt": "DGKA (Homo sapiens, UniProt P23743)",
    "endpoint_name": "IC50",
    "measured_result": "1 to 10 nM"
  },
  {
    "compound": "Cn1c(=O)nc(N2CCOCc3c(N4CCCC4)cccc32)c2cc(C#N)c(OCCO)cc21",
    "tgt": "DGKA (Homo sapiens, UniProt P23743)",
    "endpoint_name": "IC50",
    "measured_result": "< 1 nM"
  },
  {
    "compound": "Cn1c(=O)nc(N2CCOCc3c(C#CC4(C(F)(F)F)CC4)cccc32)c2nc(Cl)ccc21",
    "tgt": "DGKA (Homo sapiens, UniProt P23743)",
    "endpoint_name": "IC50",
    "measured_result": "< 1 nM"
  },
  {
    "compound": "C#Cc1cccc2c1COCCN2c1nc(=O)n(C)c2cc(OCCO)c(Cl)cc12",
    "tgt": "DGKA (Homo sapiens, UniProt P23743)",
    "endpoint_name": "IC50",
    "measured_result": "< 1 nM"
  },
  {
    "compound": "Cn1c(=O)c(C#N)c(N2CCOCc3c(C#CC4(C(F)(F)F)CC4)cccc32)c2cc(F)ccc21",
    "tgt": "DGKA (Homo sapiens, UniProt P23743)",
    "endpoint_name": "IC50",
    "measured_result": "1 to 10 nM"
  },
  {
    "compound": "COCCOc1cc2c(cc1C#N)c(N1CCOCc3c(C#CC4(C(F)(F)F)CC4)cccc31)nc(=O)n2C",
    "tgt": "DGKA (Homo sapiens, UniProt P23743)",
    "endpoint_name": "IC50",
    "measured_result": "< 1 nM"
  }
]

* * *

assay: Mouse PK profile after oral administration; type: in vivo, Male CD-1 mice; conditions: male, CD-1, plasma; mouse, oral, 5 mg/kg

[
  {
    "compound": "Cn1c(=O)nc(N2CCOCc3c(C#CC4CC4)cccc32)c2cc(Cl)c(OCCO)cc21 [Example 41]",
    "display_unit": "h",
    "half-life": 3.28
  },
  {
    "compound": "Cn1c(=O)nc(N2CCOCc3c(C#CC4(C(F)(F)F)CC4)cccc32)c2cc(Cl)ccc21 [Example 5]",
    "display_unit": "h",
    "half-life": 2.03
  },
  {
    "compound": "Cn1c(=O)nc(N2CCOCc3c(C#CC4(C(F)(F)F)CC4)cccc32)c2cc(C#N)c(OC3CCOC3)cc21 (stereo not shown) [Example 12]",
    "display_unit": "h",
    "half-life": 1.03
  },
  {
    "compound": "Cn1c(=O)nc(N2CCOCc3c(C#CC4(C(F)(F)F)CC4)cccc32)c2cc(Cl)c(OCCO)cc21 [Example 13]",
    "display_unit": "h",
    "half-life": 6.13
  }
]
